molecules and their reported remaining at 10 min, 0.5 µM
Assay: Metabolic stability in Balb/c mouse liver microsomes assessed as parent compound remaining at 0.5 uM measured after 10 mins
Format: ADME, Microsome
Details: read-out: Stability
Only the number, expressed in %, is required.

CS(=O)(=O)C(C(=O)NCCS(N)(=O)=O)c1nc2ccc(-c3ccc(C(=O)N4CCOCC4)cc3)cc2s1 (stereo not given) = 100
COCCS(=O)(=O)C(C(=O)NCC(=O)NC1CC1)c1nc2ccc(-c3ccc(F)nc3)cc2s1 (stereo not given) = 81
CS(=O)(=O)C(C(=O)NCCS(N)(=O)=O)c1nc2ccc(-c3ccccc3)cc2s1 (stereo not given) = 91
CS(=O)(=O)C(C(=O)NCCS(N)(=O)=O)c1nc2ccc(-c3cnn(CCN4CCOCC4)c3)cc2s1 (stereo not given) = 74

Okay, now this molecule:
Reported remaining at 10 min, 0.5 µM for CS(=O)(=O)C(C(=O)NCCS(N)(=O)=O)c1nc2ccc(-c3ccc(F)nc3)cc2s1 (stereo not given) was 96

###

Target: Endothelial lipase (Homo sapiens, UniProt Q9Y5X9)
Sequence (Q9Y5X9 whole entry): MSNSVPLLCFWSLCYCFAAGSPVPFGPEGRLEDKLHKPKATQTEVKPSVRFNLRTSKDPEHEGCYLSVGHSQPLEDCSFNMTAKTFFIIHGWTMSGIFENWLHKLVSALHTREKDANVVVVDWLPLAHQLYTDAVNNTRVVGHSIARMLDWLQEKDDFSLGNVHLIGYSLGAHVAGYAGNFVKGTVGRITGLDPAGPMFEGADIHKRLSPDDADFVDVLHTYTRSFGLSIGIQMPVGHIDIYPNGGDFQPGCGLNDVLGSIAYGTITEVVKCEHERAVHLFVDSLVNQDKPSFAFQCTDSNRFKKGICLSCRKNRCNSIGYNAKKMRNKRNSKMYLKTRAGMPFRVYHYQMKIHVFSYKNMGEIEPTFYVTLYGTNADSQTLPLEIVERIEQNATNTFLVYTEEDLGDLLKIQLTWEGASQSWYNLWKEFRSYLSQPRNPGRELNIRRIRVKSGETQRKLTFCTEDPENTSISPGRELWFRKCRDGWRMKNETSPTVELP
Assay: Inhibition of human endothelial lipase using D31-POPC-HDL as substrate incubated for 2 hrs in presence of human serum by LC/MS analysis
value-type: IC50 (nM)
Only the number, expressed in nM, is required.

# count of solved cases: 3
O=C(CNC(=O)C(c1nc2ccc(-c3ccc(F)nc3)cc2s1)S(=O)(=O)CCC(F)(F)F)NC1CC1 (centres undefined) = 660
COCCS(=O)(=O)C(C(=O)NCC(=O)NC1CC1)c1nc2ccc(-c3ccc(F)nc3)cc2s1 (centres undefined) = 83
CS(=O)(=O)C(C(=O)NCC(=O)NC1CC1)c1nc2ccc(-c3ccc(F)nc3)cc2s1 (centres undefined) = 7

Reported IC50 for O=C(CNC(=O)C(c1nc2ccc(-c3ccc(F)nc3)cc2s1)S(=O)(=O)Cc1ccccc1)NC1CC1 (centres undefined) was 65

###

Assay: Plasma concentration in Balb/c mouse at 10 mg/kg, po measured after 24 hrs
Format: ADME, organism-based
value-type: concentration at 24 h (nM)
Only the number, expressed in nM, is required.

# count of solved cases: 3
CS(=O)(=O)C(C(=O)NCCS(N)(=O)=O)c1nc2ccc(-c3ccc(C(=O)N4CCOCC4)cc3)cc2s1 (centres undefined) = 5
COCCS(=O)(=O)C(C(=O)NCC(=O)NC1CC1)c1nc2ccc(-c3ccc(F)nc3)cc2s1 (centres undefined) = 14
CS(=O)(=O)C(C(=O)NCCS(N)(=O)=O)c1nc2ccc(-c3cnn(CCN4CCOCC4)c3)cc2s1 (centres undefined) = 1

Okay, now this compound:
Reported concentration at 24 h for CS(=O)(=O)C(C(=O)NCCS(N)(=O)=O)c1nc2ccc(-c3ccccc3)cc2s1 (centres undefined) was 130

###

Assay: Plasma concentration in Balb/c mouse at 30 mg/kg, po measured after 7 hrs
Type: ADME, organism-based
value-type: concentration at 7 h (nM)
Only the number, expressed in nM, is required.

Reported concentration at 7 h for COCCS(=O)(=O)C(C(=O)NCC(=O)NC1CC1)c1nc2ccc(-c3ccc(F)nc3)cc2s1 (stereo unspecified) was 2420

###

Experiment: Cmax in Balb/c mouse at 10 mg/kg, po
Format: ADME, organism-based
Design: dose 10 mg/kg, route oral
Conditions: in vivo
molecules and their reported Cmax
Only the number, expressed in nM, is required.

CS(=O)(=O)C(C(=O)NCCS(N)(=O)=O)c1nc2ccc(-c3ccc(F)nc3)cc2s1 (stereo not given) = 30
CS(=O)(=O)C(C(=O)NCCS(N)(=O)=O)c1nc2ccc(-c3cnn(CCN4CCOCC4)c3)cc2s1 (stereo not given) = 15
COCCS(=O)(=O)C(C(=O)NCC(=O)NC1CC1)c1nc2ccc(-c3ccc(F)nc3)cc2s1 (stereo not given) = 39000
CS(=O)(=O)C(C(=O)NCCS(N)(=O)=O)c1nc2ccc(-c3ccccc3)cc2s1 (stereo not given) = 3500

Okay, now this molecule:
Reported Cmax for CS(=O)(=O)C(C(=O)NCCS(N)(=O)=O)c1nc2ccc(-c3ccc(C(=O)N4CCOCC4)cc3)cc2s1 (stereo not given) was 36

###

Assay: Plasma concentration in Balb/c mouse at 20 mg/kg, po measured after 7 hrs
Type: ADME, organism-based
value-type: concentration at 7 h (µM)
Only the number, expressed in µM, is required.

Reported concentration at 7 h for COCCS(=O)(=O)C(C(=O)NCC(=O)NC1CC1)c1nc2ccc(-c3ccc(F)nc3)cc2s1 (stereo unspecified) was 7.4

###

compounds and their reported Papp
Test: Permeability of compound at pH 5.5 by PAMPA
Format: ADME
Conditions: read-out: permeability
Only the number, expressed in ×10⁻⁶ cm/s, is required.

CS(=O)(=O)C(C(=O)NCCS(N)(=O)=O)c1nc2ccc(-c3ccc(F)nc3)cc2s1 (stereo not given) = 1.7
CS(=O)(=O)C(C(=O)NCCS(N)(=O)=O)c1nc2ccc(-c3ccccc3)cc2s1 (stereo not given) = 36.5
COCCS(=O)(=O)C(C(=O)NCC(=O)NC1CC1)c1nc2ccc(-c3ccc(F)nc3)cc2s1 (stereo not given) = 9.4

Reported Papp for CS(=O)(=O)C(C(=O)NCCS(N)(=O)=O)c1nc2ccc(-c3ccc(C(=O)N4CCOCC4)cc3)cc2s1 (stereo not given) was 1.2

Reported Papp for CS(=O)(=O)C(C(=O)NCC(=O)NC1CC1)c1nc2ccc(-c3ccc(F)nc3)cc2s1 (stereo not given) was 25.2

###

compounds and their reported log10 of IC50
Biological target: Endothelial lipase (Homo sapiens, UniProt Q9Y5X9)
Experiment: Inhibition of human endothelial lipase derived from human HT1080 cell conditioned media using PED-A1 as substrate incubated for 20 mins and measured every 20 secs for 10 mins by FRET assay
Give log10 of IC50, with IC50 taken in nM.

Case CS(=O)(=O)C(C(=O)NCCS(N)(=O)=O)c1nc2ccc(-c3ccc(F)nc3)cc2s1 (stereo not drawn) , Endothelial lipase (Homo sapiens, UniProt Q9Y5X9), log10 of IC50 recorded as 0.70

Case CS(=O)(=O)C(C(=O)NCCCS(N)(=O)=O)c1nc2ccc(-c3ccccc3)cc2s1 (stereo not drawn) , Endothelial lipase (Homo sapiens, UniProt Q9Y5X9), log10 of IC50 recorded as 3.89

Case COCCS(=O)(=O)C(C(=O)NCC(=O)NC1CC1)c1nc2ccc(-c3ccc(F)nc3)cc2s1 (stereo not drawn) , Endothelial lipase (Homo sapiens, UniProt Q9Y5X9), log10 of IC50 recorded as 0.66

Case O=C(CNC(=O)C(c1nc2ccc(-c3ccc(F)nc3)cc2s1)S(=O)(=O)Cc1ccccc1)NC1CC1 (stereo not drawn) , Endothelial lipase (Homo sapiens, UniProt Q9Y5X9), log10 of IC50 recorded as 1.40

Case CS(=O)(=O)C(C(=O)NCCS(N)(=O)=O)c1nc2ccc(-c3ccc(C(=O)N4CCOCC4)cc3)cc2s1 (stereo not drawn) , Endothelial lipase (Homo sapiens, UniProt Q9Y5X9), log10 of IC50 recorded as 1.00

Case CS(=O)(=O)C(C(=O)NCCS(N)(=O)=O)c1nc2ccc(-c3cnn(CCN4CCOCC4)c3)cc2s1 (stereo not drawn) , Endothelial lipase (Homo sapiens, UniProt Q9Y5X9), log10 of IC50 recorded as 1.00

Case CS(=O)(=O)C(C(=O)NCCNS(N)(=O)=O)c1nc2ccc(-c3ccccc3)cc2s1 (stereo not drawn) , Endothelial lipase (Homo sapiens, UniProt Q9Y5X9), log10 of IC50 recorded as 2.65

Case CS(=O)(=O)C(C(=O)NCCS(N)(=O)=O)c1nc2ccc(-c3ccccc3)cc2s1 (stereo not drawn) , Endothelial lipase (Homo sapiens, UniProt Q9Y5X9), log10 of IC50 recorded as 1.00

###

Target: Endothelial lipase (Mus musculus, UniProt Q9WVG5)
Sequence (Q9WVG5 whole entry): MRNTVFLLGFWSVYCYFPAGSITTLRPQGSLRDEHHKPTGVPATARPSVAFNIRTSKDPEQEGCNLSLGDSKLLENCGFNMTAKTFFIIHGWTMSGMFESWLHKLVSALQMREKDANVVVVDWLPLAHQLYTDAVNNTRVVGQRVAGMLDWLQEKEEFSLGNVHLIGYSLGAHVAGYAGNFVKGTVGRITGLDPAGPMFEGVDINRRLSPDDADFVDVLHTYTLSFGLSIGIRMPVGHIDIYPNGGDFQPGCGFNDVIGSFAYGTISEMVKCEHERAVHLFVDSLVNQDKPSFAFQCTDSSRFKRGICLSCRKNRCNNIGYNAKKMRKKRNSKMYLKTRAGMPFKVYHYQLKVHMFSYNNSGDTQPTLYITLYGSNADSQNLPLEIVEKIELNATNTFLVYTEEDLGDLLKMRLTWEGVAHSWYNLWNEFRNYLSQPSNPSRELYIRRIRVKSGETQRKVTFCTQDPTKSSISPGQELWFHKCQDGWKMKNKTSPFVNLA
Assay: Inhibition of endothelial lipase in hepatic lipase knock-out mouse plasma using D31-POPC-HDL as substrate incubated for 2 hrs by LC/MS analysis
Assay type: cell-free
value-type: pIC50
The scale used: pIC50 is minus the common logarithm of the concentration in molar units.

Reported pIC50 for COCCS(=O)(=O)C(C(=O)NCC(=O)NC1CC1)c1nc2ccc(-c3ccc(F)nc3)cc2s1 (stereo unspecified) was 6.51
